I'd be grateful if you could share measured pIC50 for these entries.
Assay: Inhibition of HIF-1 transcriptional activity in human HeLa cells transfected with hypoxia response element-dependent luciferase reporter gene under hypoxic conditions
Type: cell-based
Details: hela
Just so you know, pIC50 here is -log10 of the concentration in molar units; reply with that number alone.

In: Entry CC(C)CN[C@@H]1C2C[C@](OC(=O)Cc3ccccc3)(CC[C@H]2OC(=O)CC(C)C)[C@H]2O[C@@H]12 (stereo in doubt) has what pIC50?
Out: 4.33

In: What about CC(C)CN[C@@H]1C2C[C@](OC(=O)Cc3ccccc3)(CC[C@H]2OC(=O)CC(C)C)[C@H]2O[C@@H]12 (stereo in doubt; 16f) ?
Out: 4.72
